Where do the numbers come from? From paper PMC3487892.

Consider the following compounds; for each one, report its pIC50.
MEASURED_TARGET: COMPcc (Rattus norvegicus, UniProt P35444)
ASSAY_NOTES: Displacement of CPA from the CPA-COMPcc complex by fatty acids (fluorescence)
STUDY_CONDITIONS: read-out: [FA]1/2; fatty acid concentration that halves the CPA fluorescence; COMPcc ~0.1 µM, CPA 0.4 µM, 1× PBS pH 7.4, 25°C, triplicate
The meaning of pIC50 here: minus log10 of the concentration in molar units.

Memo: CCCCCCCC/C=C\CCCCCCCC(=O)O [C18:1 [Oleic acid], Oleic acid] , reported pIC50: 6.41

The compound listed as CCCCCCCCCCCCCCCCCCCC(=O)O [C20:0 [Arachidic acid], Arachidic acid] shows pIC50 equal to 6.55

Sample CCCCCCCCCCCCCC(=O)O [C14:0 [Myristic acid], Myristic acid] ; pIC50 observed: 6.49

----------
MEASURED_TARGET: COMPcc (Rattus norvegicus, UniProt P35444, G27M/H53Q/R54Q)
Construct: The coiled-coil domain of rat COMPcc comprising residues 27–72 was prepared as described previously
Sequence (P35444 27-72 G27M/H53Q/R54Q): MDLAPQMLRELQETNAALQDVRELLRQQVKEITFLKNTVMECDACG
ASSAY_NOTES: Fluorescence enhancement of cis-parinaric acid (CPA) on binding to COMPcc
STUDY_CONDITIONS: hyperbolic one-site binding, excitation 320 nm, emission 420 nm, 1× PBS pH 7.4, 25°C
EXPERIMENTAL_READOUT: pKd
Notebook: values listed as pKd are -log10 of the concentration (mol/L).

Field pKd (entry CC\C=C/C=C/C=C/C=C\CCCCCCCC(=O)O [cis-Parinaric acid] ) reads 6.15

----------
Would you mind telling me the reported Kd of each entry?
MEASURED_TARGET: COMPcc (Rattus norvegicus)
ASSAY_NOTES: Displacement of CPA from the CPA-COMPcc complex by fatty acids (fluorescence)
STUDY_CONDITIONS: calculated from [FA]1/2 of CPA displacement; 1× PBS pH 7.4, 25°C, triplicate
Your answer is read as nM, so omit the unit and give the number.

Form field Kd, entry CCCCCCCCCCCCCC(=O)O [C14:0 [Myristic acid], Myristic acid] : 800

The recorded Kd for entry CCCCCCCCCCCCCCCCCCCC(=O)O [C20:0 [Arachidic acid], Arachidic acid] equals 700

Short answer for CCCCCCCC/C=C\CCCCCCCC(=O)O [C18:1 [Oleic acid], Oleic acid] : Kd was 900
